Data origin: patent US11236069B2

TARGET OR SYSTEM: Recombinant human KIF18A (1-467 His-tagged) protein (Homo sapiens (Human), UniProt Q8NI77)
Sequence (Q8NI77 1-467): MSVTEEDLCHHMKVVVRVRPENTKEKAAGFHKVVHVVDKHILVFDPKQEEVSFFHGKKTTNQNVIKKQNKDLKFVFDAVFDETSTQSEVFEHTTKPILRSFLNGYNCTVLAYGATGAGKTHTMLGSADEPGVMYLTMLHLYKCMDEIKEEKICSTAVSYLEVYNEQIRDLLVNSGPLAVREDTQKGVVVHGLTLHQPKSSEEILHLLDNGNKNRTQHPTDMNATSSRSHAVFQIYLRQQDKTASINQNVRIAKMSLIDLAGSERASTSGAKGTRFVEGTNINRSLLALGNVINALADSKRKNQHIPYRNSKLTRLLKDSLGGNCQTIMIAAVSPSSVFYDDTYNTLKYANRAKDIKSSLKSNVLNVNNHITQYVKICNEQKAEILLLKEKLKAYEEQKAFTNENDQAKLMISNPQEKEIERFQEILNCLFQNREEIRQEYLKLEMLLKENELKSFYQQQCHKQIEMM
Sequence (P02550 whole entry partner): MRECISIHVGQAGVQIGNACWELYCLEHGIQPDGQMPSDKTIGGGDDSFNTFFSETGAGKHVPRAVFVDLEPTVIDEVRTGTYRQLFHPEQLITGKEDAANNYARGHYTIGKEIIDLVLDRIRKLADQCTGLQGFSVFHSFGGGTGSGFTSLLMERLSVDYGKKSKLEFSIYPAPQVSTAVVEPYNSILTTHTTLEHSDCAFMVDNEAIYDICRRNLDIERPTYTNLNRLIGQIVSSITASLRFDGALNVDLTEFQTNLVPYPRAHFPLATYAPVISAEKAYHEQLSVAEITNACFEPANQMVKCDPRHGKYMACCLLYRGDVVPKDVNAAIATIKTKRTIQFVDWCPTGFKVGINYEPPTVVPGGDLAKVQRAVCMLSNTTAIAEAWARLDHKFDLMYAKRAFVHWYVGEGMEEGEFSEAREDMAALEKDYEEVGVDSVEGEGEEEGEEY
Sequence (P02554 whole entry partner): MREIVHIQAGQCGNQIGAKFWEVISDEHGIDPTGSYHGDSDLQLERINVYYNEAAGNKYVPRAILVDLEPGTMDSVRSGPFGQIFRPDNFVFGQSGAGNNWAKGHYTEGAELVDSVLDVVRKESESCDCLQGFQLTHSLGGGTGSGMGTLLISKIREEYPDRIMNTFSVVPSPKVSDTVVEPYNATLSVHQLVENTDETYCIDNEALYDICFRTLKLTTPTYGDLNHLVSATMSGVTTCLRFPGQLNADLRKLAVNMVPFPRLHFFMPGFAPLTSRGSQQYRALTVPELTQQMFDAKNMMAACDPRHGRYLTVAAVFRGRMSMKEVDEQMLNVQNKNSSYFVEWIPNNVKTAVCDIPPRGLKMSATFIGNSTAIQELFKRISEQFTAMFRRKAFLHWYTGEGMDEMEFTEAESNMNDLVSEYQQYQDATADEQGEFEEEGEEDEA
ASSAY SUMMARY: KIF18A Enzyme Assay: microtubule-stimulated ATPase activity (ADP-Glo)
CONDITION SUMMARY: read-out: KIF18A ATPase IC50; 30 nM KIF18A, 30 μg/mL pig microtubules, ATP at Km 75 μM, ADP-Glo luminescence
READOUT KIND: IC50 (nM)

Looking up Cc1cc(NC(=O)c2ccc(NS(C)(=O)=O)cc2N2CCC3(CC2)CC3)nc(N2CCC(F)CC2)n1 [Example 11-81] , I see its IC50 listed as 60

For this compound ( Cc1cc(NC(=O)c2ccc(NS(=O)(=O)CCO)cc2N2CCC(C)(C)CC2)nc(N2CCC(F)(F)CC2)n1 [Example 11-41] ), measured IC50 is 127

// sample Cc1cc(NC(=O)c2ccc(NS(=O)(=O)CCO)cc2N2CCC3(CC2)CC3)nc(N2CCC(C)(F)CC2)n1 [Example 11-52] , its IC50 was 63

Kindly note the recorded IC50 for O=C(Nc1ccnc(N2CC(F)(F)C2)n1)c1ccc(NS(=O)(=O)CCO)cc1N1CCC2(CC1)CC2 [Example 11-7] , which is 23

Just so you know, measured IC50 for Cc1cc(NC(=O)c2ccc(NS(=O)(=O)CCO)cc2N2CCC3(CC2)CC3)nc(N2CCC[C@@H]3C[C@@H]32)n1 [Example 11-44] came out at 33

[I] Cc1cc(NC(=O)c2ccc(NS(=O)(=O)CCO)cc2N2CCC3(CC2)CC3)nc(N2CCC2)n1 [Example 11-19]
[II] Cc1cc(NC(=O)c2ccc(NS(=O)(=O)C[C@@H](C)O)cc2N2CCC3(CC2)CC3)nc(N2CC(F)(F)C2)n1 (single isomer, unassigned) [Example 10-1]
q: Of I and II , which shows the smaller IC50 value? Indicate which entry you chose by stating its label.
a: II
(II: 83 nM, I: 205 nM)

---

TARGET OR SYSTEM: Recombinant human KIF18A (1-467 His-tagged) protein (Homo sapiens (Human))
ASSAY SUMMARY: KIF18A Enzyme Assay: microtubule-stimulated ATPase activity (ADP-Glo)
CONDITION SUMMARY: read-out: KIF18A ATPase IC50; 30 nM KIF18A, 30 μg/mL pig microtubules, ATP at Km 75 μM, ADP-Glo luminescence
READOUT KIND: IC50 (µM)

Form: molecule = Cc1cc(NC(=O)c2ccc(NS(=O)(=O)CCO)cc2N2CCC3(CC2)CC3)nc(N2CC(O)(C3CC3)C2)n1 ; IC50 = 1.01

# IC50 of Cc1cc(NC(=O)c2ccc(NS(=O)(=O)C[C@H](C)O)cc2N2CCC3(CC2)CC3)nc(N2CC(F)(F)C2)n1 (single isomer, unassigned) = 0.073

For reference, reported IC50 for Cc1cc(NC(=O)c2ccc(NS(=O)(=O)CCO)cc2N2CCC3(CC2)CC3)nc(N2CC(C(C)(C)O)C2)n1 stands at 0.172

IC50 in this record for Cc1cc(NC(=O)c2ccc(S(=O)(=O)NC3(C)COC3)cc2N2CCC3(CC2)CC3)nc(C(C)(C)O)n1 : 0.065

response.value for Cc1cc(NC(=O)c2ccc(NS(=O)(=O)C3([C@@H](C)O)CC3)cc2N2CCC3(CC2)CC3)nc(N2CCC(F)(F)CC2)n1 (field: IC50) = 0.324

IC50 recorded for this molecule, C[C@@H]1CN(c2cc(NC(=O)c3ccc(NS(=O)(=O)CCO)cc3N3CCC4(CC3)CC4)ccn2)CCO1 , is 0.151

So for Cc1cc(NC(=O)c2ccc(S(=O)(=O)N[C@@H](C)CO)cc2N2CCC3(CC2)CC3)nc(N2CCC(F)(F)CC2)n1 , the logged IC50 turned out to be 0.147

For this molecule ( CC1(NS(=O)(=O)c2ccc(C(=O)Nc3ccnc(N4CCC(F)(F)CC4)c3)c(N3CCC4(CC3)CC4)c2)COC1 ), measured IC50 is 0.029

[I] Cc1cc(NC(=O)c2ccc(NS(=O)(=O)[C@@H](C)CO)cc2N2CCC3(CC2)CC3)nc(N2CCO[C@H](C)C2)n1
[II] Cc1cc(NC(=O)c2ccc(S(C)(=O)=O)cc2N2CCC3(CC2)CC3)nc(N[C@H](C)CO)n1
q: Sorting by IC50 in descending order, would I or II appear first? // caller expects the label of the chosen entry
a: II
(II: 0.216 µM, I: 0.039 µM)

[a] Cc1cc(NC(=O)c2ccc(NS(=O)(=O)CCO)cc2N2CCC3(CC2)CC3)nc(N2C[C@H]3C[C@H]3C2)n1
[b] Cc1cc(NC(=O)c2ccc(S(=O)(=O)CC(C)(C)O)cc2N2CCC3(CC2)CC3)nc(N2CCC(F)(F)CC2)n1
[c] Cc1cc(NC(=O)c2ccc(NS(=O)(=O)CCO)cc2N2CCC3(CC2)CC3)nc(N2CC(OC(F)F)C2)n1
q: Rank descending by IC50. Labels, ranked as asked.
a: b, c, a
(b: 0.806 µM, c: 0.192 µM, a: 0.02 µM)
